target: α4β3δ GABA receptors (α4β3δ-HEK-FlpIn-TRex stable cell strain) (Homo sapiens, UniProt P28472+P48169); construct: expressed in transfected cells; test: Whole-cell patch clamp, extrasynaptic functional activity (positive allosteric regulation of GABA-induced current); assay type: cell-based; conditions: patch clamp -60 mV, GABA at EC10-20, α4β3δ-HEK-FlpIn-TRex cells
Sequence (P48169 36-554): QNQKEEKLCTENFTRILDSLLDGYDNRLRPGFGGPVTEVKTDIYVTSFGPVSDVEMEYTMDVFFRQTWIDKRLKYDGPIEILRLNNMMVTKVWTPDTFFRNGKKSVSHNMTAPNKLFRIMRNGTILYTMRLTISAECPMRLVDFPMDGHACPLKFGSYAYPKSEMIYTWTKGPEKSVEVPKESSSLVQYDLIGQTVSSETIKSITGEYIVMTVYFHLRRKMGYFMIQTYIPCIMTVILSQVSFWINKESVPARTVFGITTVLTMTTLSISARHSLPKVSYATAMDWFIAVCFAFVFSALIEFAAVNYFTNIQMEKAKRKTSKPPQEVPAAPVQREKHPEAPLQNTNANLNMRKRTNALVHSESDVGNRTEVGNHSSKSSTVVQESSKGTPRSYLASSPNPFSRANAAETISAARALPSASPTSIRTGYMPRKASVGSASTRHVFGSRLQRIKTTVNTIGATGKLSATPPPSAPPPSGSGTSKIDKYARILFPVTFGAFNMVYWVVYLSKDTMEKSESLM
Sequence (P28472 26-473): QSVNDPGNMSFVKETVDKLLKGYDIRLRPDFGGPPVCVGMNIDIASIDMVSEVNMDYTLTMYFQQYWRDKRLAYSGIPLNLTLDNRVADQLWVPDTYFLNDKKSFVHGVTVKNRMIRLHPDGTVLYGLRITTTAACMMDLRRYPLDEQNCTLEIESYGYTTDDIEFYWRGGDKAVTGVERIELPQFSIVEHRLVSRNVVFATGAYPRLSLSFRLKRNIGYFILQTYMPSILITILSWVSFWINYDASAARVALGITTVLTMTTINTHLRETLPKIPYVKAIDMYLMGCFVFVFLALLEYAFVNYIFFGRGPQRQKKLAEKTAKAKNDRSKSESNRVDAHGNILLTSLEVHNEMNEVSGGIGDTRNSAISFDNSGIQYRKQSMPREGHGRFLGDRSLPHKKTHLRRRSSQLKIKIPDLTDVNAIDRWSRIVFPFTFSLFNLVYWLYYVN
Sequence (O14764 25-452 partner): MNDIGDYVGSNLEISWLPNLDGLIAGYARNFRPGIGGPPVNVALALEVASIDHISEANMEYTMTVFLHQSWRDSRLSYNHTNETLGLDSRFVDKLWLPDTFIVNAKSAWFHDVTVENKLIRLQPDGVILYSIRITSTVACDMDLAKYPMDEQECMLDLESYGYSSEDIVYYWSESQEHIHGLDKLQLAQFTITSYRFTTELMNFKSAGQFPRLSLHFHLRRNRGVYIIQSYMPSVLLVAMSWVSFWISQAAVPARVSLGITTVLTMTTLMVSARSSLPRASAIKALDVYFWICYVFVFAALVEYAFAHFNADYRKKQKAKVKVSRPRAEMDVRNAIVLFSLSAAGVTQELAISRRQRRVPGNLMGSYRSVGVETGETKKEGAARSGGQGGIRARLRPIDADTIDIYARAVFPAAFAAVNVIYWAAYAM
Parameter Emax: see the listing below.
endpoint name: Emax (%)

C[C@@]1(O)CC[C@H]2[C@H](CC[C@@H]3[C@@H]2CC[C@]2(C)[C@@H](C(=O)Cn4cnn(C5CCCC5)c4=O)CC[C@@H]32)C1 = 830
C[C@@]1(O)CC[C@@]2(C)[C@@H](CC[C@@H]3[C@@H]2CC[C@]2(C)[C@@H](C(=O)Cn4cnn(-c5ccnc(F)c5)c4=O)CC[C@@H]32)C1 = 507
C[C@@]1(O)CC[C@H]2[C@H](CC[C@@H]3[C@@H]2CC[C@]2(C)[C@@H](C(=O)Cn4cnn(-c5cc(F)cc(C#N)c5)c4=O)CC[C@@H]32)C1 = 546
C[C@@]1(O)CC[C@H]2[C@H](CC[C@@H]3[C@@H]2CC[C@]2(C)[C@@H](C(=O)Cn4cnn(-c5ccnc(OC(F)(F)F)c5)c4=O)CC[C@@H]32)C1 = 625
C[C@@]1(O)CC[C@H]2[C@H](CC[C@@H]3[C@@H]2CC[C@]2(C)[C@@H](C(=O)Cn4cnn(-c5ccccc5)c4=O)CC[C@@H]32)C1 = 490
Cn1ncn(CC(=O)[C@H]2CC[C@H]3[C@@H]4CC[C@@H]5C[C@](C)(O)CC[C@@H]5[C@H]4CC[C@]23C)c1=O = 497
C[C@@]1(O)CC[C@H]2[C@H](CC[C@@H]3[C@@H]2CC[C@]2(C)[C@@H](C(=O)Cn4cnn(-c5cccc(C#N)c5)c4=O)CC[C@@H]32)C1 = 683
C[C@@]1(O)CC[C@H]2[C@H](CC[C@@H]3[C@@H]2CC[C@]2(C)[C@@H](C(=O)Cn4cnn(-c5cc(F)ccn5)c4=O)CC[C@@H]32)C1 = 720
C[C@@]1(O)CC[C@H]2[C@H](CC[C@@H]3[C@@H]2CC[C@]2(C)[C@@H](C(=O)Cn4cnn(-c5ccccc5F)c4=O)CC[C@@H]32)C1 = 541
